tested on: CCRF-CEM; assay: Ratio of IC50 for human vinblastine-resistant CCRF-CEM cells to IC50 for human CCRF-CEM cells; type: functional
Is Ratio IC50 at least 10? Then 1.0. If not, 0.0.

INSERT INTO results (molsmiles, cat) VALUES
  ('Cc1cc(Nc2cccc(Br)c2)c2cc(NC(=O)Nc3ccc(N(CCCl)CCCl)cc3)ccc2n1', 1.0),
  ('Cc1cc(Nc2ccc(Br)cc2)c2cc(NC(=O)Nc3ccc(N(CCCl)CCCl)cc3)ccc2n1', 1.0),
  ('Cc1cc(Nc2ccc(F)cc2)c2cc(NC(=O)Nc3ccc(N(CCCl)CCCl)cc3)ccc2n1', 1.0),
  ('Cc1cc(Nc2ccc(F)c(Cl)c2)c2cc(NC(=O)Nc3ccc(N(CCCl)CCCl)cc3)ccc2n1', 1.0),
  ('CNc1cc(C)nc2ccc(NC(=O)Nc3ccc(N(CCCl)CCCl)cc3)cc12', 1.0),
  ('CC[C@]1(O)C[C@@H]2CN(CCc3c([nH]c4ccccc34)[C@@](C(=O)OC)(c3cc4c(cc3OC)N(C)[C@H]3[C@@](O)(C(=O)OC)[C@H](OC(C)=O)[C@]5(CC)C=CCN6CC[C@]43[C@@H]65)C2)C1', 1.0),
  ('Cc1cc(Nc2ccc(Cl)cc2)c2cc(NC(=O)Nc3ccc(N(CCCl)CCCl)cc3)ccc2n1', 1.0),
  ('COc1cccc(Nc2cc(-c3ccccc3)nc3ccc(NC(=O)Nc4ccc(N(CCCl)CCCl)cc4)cc23)c1', 0.0),
  ('Cc1cccc(Nc2cc(C)nc3ccc(NC(=O)Nc4ccc(N(CCCl)CCCl)cc4)cc23)c1', 1.0),
  ('Cc1cc(Nc2cccc(Cl)c2)c2cc(NC(=O)Nc3ccc(N(CCCl)CCCl)cc3)ccc2n1', 1.0),
  ('C#Cc1cccc(Nc2cc(C)nc3ccc(NC(=O)Nc4ccc(N(CCCl)CCCl)cc4)cc23)c1', 0.0),
  ('Cc1cc(Nc2ccccc2)c2cc(NC(=O)Nc3ccc(N(CCCl)CCCl)cc3)ccc2n1', 1.0),
  ('Cc1cc(Nc2cccc(F)c2)c2cc(NC(=O)Nc3ccc(N(CCCl)CCCl)cc3)ccc2n1', 1.0),
  ('COc1cccc(Nc2cc(C)nc3ccc(NC(=O)Nc4ccc(N(CCCl)CCCl)cc4)cc23)c1', 1.0),
  ('Cc1cc(Nc2ccc(F)c(Br)c2)c2cc(NC(=O)Nc3ccc(N(CCCl)CCCl)cc3)ccc2n1', 1.0),
  ('Cc1cccc(Nc2cc(-c3ccccc3)nc3ccc(NC(=O)Nc4ccc(N(CCCl)CCCl)cc4)cc23)c1', 0.0),
  ('O=C(Nc1ccc(N(CCCl)CCCl)cc1)Nc1ccc2nc(-c3ccccc3)cc(Nc3cccc(Cl)c3)c2c1', 0.0),
  ('O=C(Nc1ccc(N(CCCl)CCCl)cc1)Nc1ccc2nc(-c3ccccc3)cc(Nc3ccc(F)c(Cl)c3)c2c1', 0.0),
  ('COc1cc(Nc2cc(C)nc3ccc(NC(=O)Nc4ccc(N(CCCl)CCCl)cc4)cc23)cc(OC)c1OC', 1.0);

----------
test system: HCT-116; assay: Cytotoxicity against human HCT116 cells after 72 hrs by AlamarBlue assay; type: functional, cell-based; conditions: HCT-116, 72 h
valueKind: IC50 (µM)

INSERT INTO assay_data (molsmiles, assaytarget, uom, recordedvalue) VALUES
  ('Cc1cc(Nc2cccc(C(F)(F)F)c2)c2cc(NC(=O)Nc3ccc(N(CCCl)CCCl)cc3)ccc2n1', 'HCT-116', 'µM', 0.62),
  ('C#Cc1cccc(Nc2cc(C)nc3ccc(NC(=O)Nc4ccc(N(CCCl)CCCl)cc4)cc23)c1', 'HCT-116', 'µM', 0.59),
  ('COc1cc(Nc2cc(C)nc3ccc(NC(=O)Nc4ccc(N(CCCl)CCCl)cc4)cc23)cc(OC)c1OC', 'HCT-116', 'µM', 1.81),
  ('COc1cccc(Nc2cc(-c3ccccc3)nc3ccc(NC(=O)Nc4ccc(N(CCCl)CCCl)cc4)cc23)c1', 'HCT-116', 'µM', 1.35),
  ('Cc1cc(Nc2cccc(F)c2)c2cc(NC(=O)Nc3ccc(N(CCCl)CCCl)cc3)ccc2n1', 'HCT-116', 'µM', 0.74),
  ('Cc1cc(Nc2ccc(Cl)cc2)c2cc(NC(=O)Nc3ccc(N(CCCl)CCCl)cc3)ccc2n1', 'HCT-116', 'µM', 0.77),
  ('CNc1cc(C)nc2ccc(NC(=O)Nc3ccc(N(CCCl)CCCl)cc3)cc12', 'HCT-116', 'µM', 1.28),
  ('Cc1cc(Nc2cccc(Cl)c2)c2cc(NC(=O)Nc3ccc(N(CCCl)CCCl)cc3)ccc2n1', 'HCT-116', 'µM', 0.56),
  ('Cc1cc(Nc2ccccc2)c2cc(NC(=O)Nc3ccc(N(CCCl)CCCl)cc3)ccc2n1', 'HCT-116', 'µM', 0.83),
  ('Cc1cc(Nc2ccc(F)c(Br)c2)c2cc(NC(=O)Nc3ccc(N(CCCl)CCCl)cc3)ccc2n1', 'HCT-116', 'µM', 0.63),
  ('Cc1cc(Nc2ccc(F)cc2)c2cc(NC(=O)Nc3ccc(N(CCCl)CCCl)cc3)ccc2n1', 'HCT-116', 'µM', 1.06);

----------
tested on: HCT-116; test: Cytotoxicity against human HCT116 cells after 72 hrs by AlamarBlue assay; type: functional, cell-based; settings: HCT-116, 72 h
Could you please mark 1 (yes) for values of IC50 below 800 nM and 0 (no) for values at or above it?

INSERT INTO results (molsmiles, cat) VALUES
  ('Cc1cccc(Nc2cc(C)nc3ccc(NC(=O)Nc4ccc(N(CCCl)CCCl)cc4)cc23)c1', '1 (yes)'),
  ('Cc1cc(Nc2ccc(F)c(Cl)c2)c2cc(NC(=O)Nc3ccc(N(CCCl)CCCl)cc3)ccc2n1', '0 (no)'),
  ('O=C(Nc1ccc(N(CCCl)CCCl)cc1)Nc1ccc2nc(-c3ccccc3)cc(Nc3ccc(F)c(Cl)c3)c2c1', '0 (no)'),
  ('Cc1cc(Nc2cccc(Br)c2)c2cc(NC(=O)Nc3ccc(N(CCCl)CCCl)cc3)ccc2n1', '1 (yes)'),
  ('O=C(Nc1ccc(N(CCCl)CCCl)cc1)Nc1ccc2nc(-c3ccccc3)cc(Nc3cccc(Cl)c3)c2c1', '0 (no)'),
  ('COc1cccc(Nc2cc(C)nc3ccc(NC(=O)Nc4ccc(N(CCCl)CCCl)cc4)cc23)c1', '1 (yes)'),
  ('Cc1cccc(Nc2cc(-c3ccccc3)nc3ccc(NC(=O)Nc4ccc(N(CCCl)CCCl)cc4)cc23)c1', '0 (no)');
